// reported % test substance after 4 h [F(t = 4 h) × 100/F(t = 0 h)] for each item listed
- Experimental details: Stability in buffer at various pH values
- Format: physicochemical
- Cond: pH 5, 37° C., 4 h
Test readout: % test substance after 4 h [F(t = 4 h) × 100/F(t = 0 h)] (%)

C[C@H](NC(=O)CN)C(=O)OC[C@H](COc1ccc(-c2c(C#N)c(N)nc(SCc3coc(-c4ccc(Cl)cc4)n3)c2C#N)cc1)OC(=O)[C@H](C)NC(=O)CN [Example 7] ... 98
CC(C)[C@H](N)C(=O)N[C@@H](C)C(=O)OC[C@H](COc1ccc(-c2c(C#N)c(N)nc(SCc3coc(-c4ccc(Cl)cc4)n3)c2C#N)cc1)OC(=O)[C@H](C)NC(=O)[C@@H](N)C(C)C [Example 26] ... 97
C[C@H](NC(=O)CCN)C(=O)OC[C@H](COc1ccc(-c2c(C#N)c(N)nc(SCc3coc(-c4ccc(Cl)cc4)n3)c2C#N)cc1)OC(=O)[C@H](C)NC(=O)CCN [Example 32] ... 100
C[C@H](N)C(=O)N[C@@H](C)C(=O)OC[C@H](COc1ccc(-c2c(C#N)c(N)nc(SCc3coc(-c4ccc(Cl)cc4)n3)c2C#N)cc1)OC(=O)[C@H](C)NC(=O)[C@H](C)N [Example 33] ... 100
